assay: recombinant UMI read abundance after kanamycin selection (control-corrected) (log10(CPM+1)); higher = more efficient recombination; extreme values may be limits of the assay; sequences stand for … in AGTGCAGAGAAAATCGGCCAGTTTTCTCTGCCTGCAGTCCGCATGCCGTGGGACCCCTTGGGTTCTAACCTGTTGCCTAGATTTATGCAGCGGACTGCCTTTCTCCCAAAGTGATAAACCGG…AGGTTGGTTTCACT; site = the 11-nt donor;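 also: IS621 bridge recombinase in Escherichia coli cells against a fixed T5 target plasmid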
Overview of reported recombinant UMI read abundance (log10) across a group of sequences:
No unit in the answer, please; the number alone is enough.

Recorded recombinant UMI read abundance (log10), per entry:
> print(dat)
                            record.sequence  endpoint.value
1  CCAGATGCATGGACCGGTTTTCCCGGTAATCCGTATTTGAT (site CCAGCTGCTAT)         0.00516
2  CAACTATCATGGACCGGTTTTCCCGGTAATCCGTATTTGAT (site CAACTATCTAT)           0.885
3  TAAAGTCCATGGACCGGTTTTCCCGGTAATCCGTATTTGTG (site TAAAGTCCTAA)         0.00597
4  GTGGACGCATGGACCGGTTTTCCCGGTAATCCGTATTTGTG (site GTGGACGCTCA)            1.56

// query Using the record for ACTACCTCATGGACCGGTTTTCCCGGTAATCCGTATTTGTT (site ACTACCTCTAA) , report its recombinant UMI read abundance (log10).
// result 1.19

// query Note, next up: CTTTCTCCATGGACCGGTTTTCCCGGTAATCCGTATTTGCT (site CTTTCTCCTAG)
// result 1.82

Value source: the supplement of paper PMC11208160
